// provenance: the supplement of paper PMC10883282

List of relative viability values.
# Test system: HS729
# protocol_details: relative viability vs DMSO control (72 h) (fraction); higher = more viable cells
# protocol_conditions: 0.00017 µM

Below: 3 compounds and their reported relative viability.
compound=COc1cc2ncnc(Nc3ccc(F)c(Cl)c3)c2cc1OCCCN1CCOCC1 result=0.973
compound=COc1cc(Nc2ncc3c(n2)-c2ccc(Cl)cc2C(c2c(F)cccc2OC)=NC3)ccc1C(=O)O result=0.938
compound="Cc1cc2c(F)c(Oc3ncnn4cc(OC[C@@H](C)OC(=O)[C@H](C)N)c(C)c34)ccc2[nH]1 [Brivanib_alaninate]" result=0.943

Then there is this compound:
[in] Hello, I am looking for reported relative viability with HS729 for CNC(=O)c1cccc2cc(Oc3ccnc4cc(OCC5(N)CC5)c(OC)cc34)ccc12 . Could you help?
[out] 1.08

---

# System: SK-LMS-1
# protocol_details: relative viability vs DMSO control (72 h) (fraction); higher = more viable cells
# protocol_conditions: 10 µM
recorded_metric: relative viability
// no unit, no text: just the number

[in] relative viability for Cc1c2oc3c(C)ccc(C(=O)N[C@@H]4C(=O)N[C@H](C(C)C)C(=O)N5CCC[C@H]5C(=O)N(C)CC(=O)N(C)[C@@H](C(C)C)C(=O)O[C@@H]4C)c3nc-2c(C(=O)N[C@@H]2C(=O)N[C@H](C(C)C)C(=O)N3CCC[C@H]3C(=O)N(C)CC(=O)N(C)[C@@H](C(C)C)C(=O)O[C@@H]2C)c(N)c1=O ?
[out] 0.3

---

The reader will find reported relative viability values listed item by item below.
# System: SK-ES-1
# protocol_details: relative viability vs DMSO control (72 h) (fraction); higher = more viable cells
# protocol_conditions: 1.111 µM
Give a plain numeric answer without units written out.

The cases that follow already have their relative viability on record.
compound="Cc1cc(F)c(C(=O)Nc2cccc(-c3nncn3C(C)C)n2)cc1-n1cnc(C2CC2)c1 [Selonsertib]" recorded_metric="relative viability" quantitative_readout=0.988
compound="CNC(=O)c1c(C)oc2cc(Oc3ncnc4cc(OC)c(OC)cc34)ccc12 [Fruquintinib]" recorded_metric="relative viability" quantitative_readout=0.971

Here's the next entry for you.
[in] I would be grateful if you could share the reported relative viability for COc1cc(Nc2ncc3c(n2)-c2ccc(Cl)cc2C(c2c(F)cccc2OC)=NC3)ccc1C(=O)O [Alisertib] .
[out] 0.0443

---

# System: SW1353
# protocol_details: relative viability vs DMSO control (72 h) (fraction); higher = more viable cells
# protocol_conditions: 0.1235 µM
Lab note - cut at 0.9 for relative viability: 1 if strictly below, -1 if not.

Here's what some known entries look like.
compound=C#Cc1cccc(Nc2ncnc3cc4c(cc23)OCCOCCOCCO4)c1 subject_of_test=SW1353 assigned_label=-1
compound=CCS(=O)(=O)N1CC(CC#N)(n2cc(-c3ncnc4[nH]ccc34)cn2)C1 subject_of_test=SW1353 assigned_label=-1
compound=COc1cc2ncnc(Nc3ccc(F)c(Cl)c3)c2cc1OCCCN1CCOCC1 subject_of_test=SW1353 assigned_label=-1
compound=CO[C@H]1C[C@@H]2CC[C@@H](C)[C@@](O)(O2)C(=O)C(=O)N2CCCC[C@H]2C(=O)O[C@H]([C@H](C)C[C@@H]2CC[C@@H](OC(=O)C(C)(CO)CO)[C@H](OC)C2)CC(=O)[C@H](C)/C=C(\C)[C@@H](O)[C@@H](OC)C(=O)[C@H](C)C[C@H](C)/C=C/C=C/C=C/1C subject_of_test=SW1353 assigned_label=1

[in] Is the reported relative viability for O=S(=O)(c1cccc2c(O)nccc12)N1CCCNCC1 [Hydroxyfasudil] strictly below 0.9?
[out] -1

[in] Next entry: CN(C)C/C=C/C(=O)Nc1cc2c(Nc3ccc(F)c(Cl)c3)ncnc2cc1O[C@H]1CCOC1
[out] 1

[in] Now consider Cc1[nH]c(/C=C2\C(=O)Nc3ccccc32)c(C)c1CCC(=O)O [Orantinib] .
[out] -1

[in] Field entry: O=C(c1ccc(F)c(F)c1Nc1ccc(I)cc1F)N1CC(O)([C@@H]2CCCCN2)C1
[out] 1

---

# System: VA-ES-BJ
# protocol_details: relative viability vs DMSO control (72 h) (fraction); higher = more viable cells
# protocol_conditions: 0.1235 µM
// assign rule met if relative viability falls strictly below 0.7, else rule not met (ties count as rule not met)

compound="Cc1[nH]c(/C=C2\\C(=O)Nc3ccccc32)c(C)c1CCC(=O)O [Orantinib]" subject_of_test=VA-ES-BJ assigned_label="rule not met"
compound=CS(=O)(=O)CCNCc1ccc(-c2ccc3ncnc(Nc4ccc(OCc5cccc(F)c5)c(Cl)c4)c3c2)o1 subject_of_test=VA-ES-BJ assigned_label="rule not met"
compound="O=C(/C=C\\n1cnc(-c2cc(C(F)(F)F)cc(C(F)(F)F)c2)n1)NNc1cnccn1 [Selinexor]" subject_of_test=VA-ES-BJ assigned_label="rule met"
compound="O=S(=O)(c1cccc2c(O)nccc12)N1CCCNCC1 [Hydroxyfasudil]" subject_of_test=VA-ES-BJ assigned_label="rule not met"
compound=CN(C)C/C=C/C(=O)Nc1cc2c(Nc3ccc(F)c(Cl)c3)ncnc2cc1O[C@H]1CCOC1 subject_of_test=VA-ES-BJ assigned_label="rule not met"
compound=CO[C@H]1C[C@@H]2CC[C@@H](C)[C@@](O)(O2)C(=O)C(=O)N2CCCC[C@H]2C(=O)O[C@H]([C@H](C)C[C@@H]2CC[C@@H](OC(=O)C(C)(CO)CO)[C@H](OC)C2)CC(=O)[C@H](C)/C=C(\C)[C@@H](O)[C@@H](OC)C(=O)[C@H](C)C[C@H](C)/C=C/C=C/C=C/1C subject_of_test=VA-ES-BJ assigned_label="rule met"
compound=CNC(=O)c1c(C)oc2cc(Oc3ncnc4cc(OC)c(OC)cc34)ccc12 subject_of_test=VA-ES-BJ assigned_label="rule not met"

# input for lookup
[in] Here's an entry: O=C(c1ccc(F)c(F)c1Nc1ccc(I)cc1F)N1CC(O)([C@@H]2CCCCN2)C1 . Is its relative viability below 0.7?
[out] rule not met

---

# Test system: SW684
# protocol_details: relative viability vs DMSO control (72 h) (fraction); higher = more viable cells
# protocol_conditions: 0.04115 µM
recorded_metric: relative viability
Output: the number by itself.

Answered cases to consult:
compound=CCS(=O)(=O)N1CC(CC#N)(n2cc(-c3ncnc4[nH]ccc34)cn2)C1 recorded_metric="relative viability" quantitative_readout=1.07
compound="Cc1cc2c(F)c(Oc3ncnn4cc(OC[C@@H](C)OC(=O)[C@H](C)N)c(C)c34)ccc2[nH]1 [Brivanib_alaninate]" recorded_metric="relative viability" quantitative_readout=1.07

[in] Any idea what relative viability came out for C#Cc1cccc(Nc2ncnc3cc4c(cc23)OCCOCCOCCO4)c1 on SW684?
[out] 1.18

---

# Tested on: KHOS-240S
# protocol_details: relative viability vs DMSO control (72 h) (fraction); higher = more viable cells
# protocol_conditions: 0.00017 µM
recorded_metric: relative viability
The answer should be written as a number, with no unit following it.

Recorded relative viability, per entry:
compound="Cc1cc2c(F)c(Oc3ncnn4cc(OC[C@@H](C)OC(=O)[C@H](C)N)c(C)c34)ccc2[nH]1 [Brivanib_alaninate]" subject_of_test=KHOS-240S quantitative_readout=1.02
compound="CC(=O)c1c(C)c2cnc(Nc3ccc(N4CCNCC4)cn3)nc2n(C2CCCC2)c1=O [Palbociclib]" subject_of_test=KHOS-240S quantitative_readout=1.07

[in] What value of measured relative viability is listed for O=C(/C=C\n1cnc(-c2cc(C(F)(F)F)cc(C(F)(F)F)c2)n1)NNc1cnccn1 [Selinexor] ?
[out] 1.08

[in] Then what about the compound Cc1[nH]c(/C=C2\C(=O)Nc3ccccc32)c(C)c1CCC(=O)O [Orantinib] ?
[out] 1.04

[in] What about CN(C)C(=O)c1cc2cnc(Nc3ccc(N4CCNCC4)cn3)nc2n1C1CCCC1 [Ribociclib] ?
[out] 1.08

[in] How about CS(=O)(=O)CCNCc1ccc(-c2ccc3ncnc(Nc4ccc(OCc5cccc(F)c5)c(Cl)c4)c3c2)o1 [Lapatinib] ?
[out] 1.04

[in] Follow-up entry: CCS(=O)(=O)N1CC(CC#N)(n2cc(-c3ncnc4[nH]ccc34)cn2)C1 [Baricitinib]
[out] 1.03

[in] Similarly, COc1cc(Nc2ncc3c(n2)-c2ccc(Cl)cc2C(c2c(F)cccc2OC)=NC3)ccc1C(=O)O [Alisertib] ?
[out] 1.04

---

Listing: relative viability of selected compounds
# Tested on: SK-LMS-1
# protocol_details: relative viability vs DMSO control (72 h) (fraction); higher = more viable cells
# protocol_conditions: 3.333 µM

compound="Cc1c2oc3c(C)ccc(C(=O)N[C@@H]4C(=O)N[C@H](C(C)C)C(=O)N5CCC[C@H]5C(=O)N(C)CC(=O)N(C)[C@@H](C(C)C)C(=O)O[C@@H]4C)c3nc-2c(C(=O)N[C@@H]2C(=O)N[C@H](C(C)C)C(=O)N3CCC[C@H]3C(=O)N(C)CC(=O)N(C)[C@@H](C(C)C)C(=O)O[C@@H]2C)c(N)c1=O [Dactinomycin]" result=0.288
compound="COc1cc(N2CCC(N3CCN(C)CC3)CC2)ccc1Nc1ncc(Cl)c(Nc2ccccc2P(C)(C)=O)n1 [Brigatinib]" result=0.556
compound="COc1cc2ncnc(Nc3ccc(F)c(Cl)c3)c2cc1OCCCN1CCOCC1 [Gefitinib]" result=0.902
compound="CN(C)CCCOc1ccc(-c2ccc3ncc4c(c3c2)n(C2CCOCC2)c(=O)n4C)cn1 [AZD-0156]" result=0.799
compound="Cc1[nH]c(/C=C2\\C(=O)Nc3ccccc32)c(C)c1CCC(=O)O [Orantinib]" result=0.971

[in] // lookup relative viability for C[C@@H]1CN(C(=O)c2ccc(NC(=O)c3cc(O[C@H](C)c4c(Cl)ccc(F)c4Cl)c(N)nn3)cc2)C[C@H](C)N1 [Ensartinib]
[out] 0.53

[in] And what about the compound CO[C@H]1C[C@@H]2CC[C@@H](C)[C@@](O)(O2)C(=O)C(=O)N2CCCC[C@H]2C(=O)O[C@H]([C@H](C)C[C@@H]2CC[C@@H](OC(=O)C(C)(CO)CO)[C@H](OC)C2)CC(=O)[C@H](C)/C=C(\C)[C@@H](O)[C@@H](OC)C(=O)[C@H](C)C[C@H](C)/C=C/C=C/C=C/1C [Temsirolimus] ?
[out] 0.441

[in] Next compound: CC(=O)c1c(C)c2cnc(Nc3ccc(N4CCNCC4)cn3)nc2n(C2CCCC2)c1=O [Palbociclib]
[out] 1.06
